Each entry below lists one item and its recorded melting point value.
recorded endpoint: melting point

INSERT INTO assay_data (sample_smiles, recorded_value) VALUES
  ('N#Cc1c(-c2ccc(F)cc2)nc(SCc2ccc(F)cc2)nc1N1CCN(c2ccccc2)CC1', '180 to 182 °C'),
  ('N#Cc1c(-c2ccc(F)cc2)nc(SCc2ccccc2)nc1N1CCN(c2ccccc2)CC1', '165 to 167 °C'),
  ('N#Cc1c(-c2ccc(F)cc2)nc(SCc2ccc([N+](=O)[O-])cc2)nc1N1CCN(c2ccccc2)CC1', '165 to 167 °C'),
  ('Cc1ccc(CSc2nc(-c3ccc(F)cc3)c(C#N)c(N3CCN(c4ccccc4)CC3)n2)cc1', '145 to 147 °C');
